Assay: LDH release cytotoxicity assay
Assay type: cell-based
Conditions: human, U937 cells
Measured endpoint: inhibition at 4 h, 50 µM (%)
Answers are plain numbers, in %.

COC(=O)COc1ccc(NC(=O)C2(c3cccc(C)c3)CC2)c(C)c1 [Compound 8g]	1
COC(=O)COc1ccc(NC(=O)C2(c3ccc(Cl)cc3)CC2)cc1Br [Compound 8o]	-2
COC(=O)COc1ccc(NC(=O)C2(c3ccccc3)CC2)cc1Br [Compound 8d]	3
COC(=O)COc1ccc(NC(=O)C2(c3ccc(Cl)c(Cl)c3)CC2)cc1 [Compound 8s]	-1
COC(=O)COc1ccc(NC(=O)C2(c3ccc(Cl)cc3)CC2)cc1 [Compound 8m]	1

// batch mode: one inhibition at 4 h, 50 µM value per listed entry
1. COC(=O)COc1cccc(NC(=O)C2(c3ccc(OC)cc3)CC2)c1 [Compound 8h]
2. COC(=O)COc1ccc(NC(=O)C2(c3ccc(OC)cc3)CC2)cc1 [Compound 8i]
3. COC(=O)COc1cccc(NC(=O)C2(c3ccc(Cl)cc3)CC2)c1 [Compound 8l]
4. COC(=O)COc1ccc(NC(=O)C2(c3cccc(Br)c3)CC2)c(C)c1 [Compound 8r]

[reply]
[0, -2, 0, 1]
